System: ragweed (common ragweed, Ambrosia artemisiifolia)
Assay: Test A postemergence, ragweed
Format: in vivo
Conditions: Postemergence, 500 g ai/ha; visual injury vs untreated controls after approx. 10 days; 0 to 100 scale (0 no effect, 100 complete control)
measured quantity: Ragweed plant response rating

> print(dat)
                               smiles.input                       experimental.system              measured.quantity  result
1  Cc1cc(C)c(N(S(=O)(=O)C(F)(F)F)S(=O)(=O)C(F)(F)F)cc1-c1cc(Cl)nn(C)c1=O  ragweed (common ragweed, Ambrosia artemisiifolia)  Ragweed plant response rating      30
2  Cc1cc(-c2cc(NS(=O)(=O)C(F)(F)F)c(C)cc2C)c(=O)n(C)n1  ragweed (common ragweed, Ambrosia artemisiifolia)  Ragweed plant response rating      20
3  Cc1cc(Cl)c(N(S(=O)(=O)C(F)(F)F)S(=O)(=O)C(F)(F)F)cc1C1=NOC(C)(C)C1  ragweed (common ragweed, Ambrosia artemisiifolia)  Ragweed plant response rating      90
4  CCn1nc(C)cc(-c2cc(N(S(=O)(=O)C(F)(F)F)S(=O)(=O)C(F)(F)F)c(C)cc2C)c1=O  ragweed (common ragweed, Ambrosia artemisiifolia)  Ragweed plant response rating      60

###

// reported Ryegrass, Italian plant response rating per item
Tested on: Ryegrass, Italian (Italian ryegrass, Lolium multiflorum)
Assay: Test A preemergence, Ryegrass, Italian
Assay type: in vivo
Conditions: Preemergence, 500 g ai/ha; visual injury on 0 to 100 scale (0 no effect, 100 complete control), approximately 10 days
measured quantity: Ryegrass, Italian plant response rating

> print(dat)
                                   molecule  number
1  Cc1cc(C)c(N2CCC3(CCCC3)C2=O)cc1NS(=O)(=O)C(F)(F)F     100
2  Cc1cc(Cl)c(C(=O)N(C)C)cc1N(S(=O)(=O)C(F)(F)F)S(=O)(=O)C(F)(F)F     100
3  Cc1cc(C)c(N(S(=O)(=O)C(F)(F)F)S(=O)(=O)C(F)(F)F)cc1C(=O)N1CCC(Cl)CC1     100
4  Cc1cc(F)c(C(=O)N2CC(C)OC(C)C2)cc1N(S(=O)(=O)C(F)(F)F)S(=O)(=O)C(F)(F)F (centres unmarked)      90
5  Cc1cc(Cl)c(C(=O)N2CCCCC2)cc1N(S(=O)(=O)C(F)(F)F)S(=O)(=O)C(F)(F)F     100

###

System: barnyardgrass (Echinochloa crus-galli)
Test: Test A preemergence, barnyardgrass
Type: in vivo
Settings: Preemergence, 500 g ai/ha; 0 to 100 scale (0 no effect, 100 complete control)
measured quantity: Plant response rating, Barnyardgrass

> print(dat)
                                    molecule  number
 1  Cc1cc(C(F)(F)F)c(C(=O)N(C)C)cc1NS(=O)(=O)C(F)(F)F      90
 2  Cc1cc(C)c(C2=NOC3(CCC4(CC3)OCCO4)C2)cc1NS(=O)(=O)C(F)(F)F     100
 3  Cc1cc(C)c(-c2ccnn(CC(C)C)c2=O)cc1NS(=O)(=O)C(F)(F)F      90
 4  Cc1cc(F)c(C(=O)N2CC(C)OC(C)C2)cc1NS(=O)(=O)C(F)(F)F (centres unmarked)       0
 5  Cc1cc(F)c(C(=O)N(C)C)cc1NS(=O)(=O)C(F)(F)F      90
 6  COc1cnn(C)c(=O)c1-c1cc(NS(=O)(=O)C(F)(F)F)c(C)cc1C      90
 7  Cc1cc(C)c(N(S(C)(=O)=O)S(=O)(=O)C(F)(F)F)cc1-c1ccnn(C)c1=O      90
 8  Cc1cc(F)c(C(=O)N2CCC(C#N)CC2)cc1NS(=O)(=O)C(F)(F)F       0
 9  CCc1cc(-c2cc(N(S(=O)(=O)C(F)(F)F)S(=O)(=O)C(F)(F)F)c(C)cc2C)c(=O)n(C)n1     100
10  Cc1cc(-c2cc(NS(=O)(=O)C(F)(F)F)c(C)cc2C)c(=O)n(C)n1     100
11  Cc1cc(Cl)c(NS(=O)(=O)C(F)(F)F)cc1C(=O)N1CCC(Cl)CC1     100
12  Cc1cc(C(F)(F)F)c(C(=O)N2CCCCC2)cc1NS(=O)(=O)C(F)(F)F      80
13  Cc1cc(C)c(C(=O)N2CCC(S(C)(=O)=O)CC2)cc1NS(=O)(=O)C(F)(F)F      30
14  C#CCN(C)C(=O)c1cc(NS(=O)(=O)C(F)(F)F)c(C)c(F)c1C      90
15  Cc1cc(C)c(C2=NOC3(CCC3)C2)cc1NS(=O)(=O)C(F)(F)F     100
16  Cc1cc(Cl)c(NS(=O)(=O)C(F)(F)F)cc1C(=O)N1CCC(F)CC1     100
17  COc1cnn(-c2cc(N(S(=O)(=O)C(F)(F)F)S(=O)(=O)C(F)(F)F)c(C)cc2C)c(=O)c1OC      90
